TARGET SYSTEM: T1, human PD-1 expressed on cells (human, UniProt Q15116 25-288)
T1 construct: whole, on cells; Treated as one molecule; also called PD-1 expressing Jurkat cells; human PD-1 transfected Jurkat cells
T1 sequence (Q15116 25-288): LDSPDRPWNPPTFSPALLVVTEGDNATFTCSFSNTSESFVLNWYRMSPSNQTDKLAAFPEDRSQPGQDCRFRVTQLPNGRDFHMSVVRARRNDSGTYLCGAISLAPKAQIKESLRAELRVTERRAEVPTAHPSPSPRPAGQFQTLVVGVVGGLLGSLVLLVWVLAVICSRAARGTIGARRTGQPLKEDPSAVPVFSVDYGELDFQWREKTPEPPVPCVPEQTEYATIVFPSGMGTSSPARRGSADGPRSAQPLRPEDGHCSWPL
EXPERIMENT: rank among the 16 humanized clones in competition with Alexa 488-labeled murine mAb BAP049 on PD-1-expressing 300.19 cells, second experiment
QUANTITY KIND: Competition Binding 2nd exp. (rank)

humanized mAb BAP049-hum03 (antibody, human IgG4 S228P, kappa, V domains shown, Human IgG4(S228P), human kappa; tested as concentrated supernatant of transiently transfected CHO cells) VH: EVQLVQSGAEVKKPGESLRISCKGSGYTFTTYWMHWIRQSPSRGLEWLGNIYPGTGGSNFDEKFKNRFTISRDNSKNTLYLQMNSLRAEDTAVYYCTRWTTGTGAYWGQGTTVTVSS VL: DIQMTQSPSSLSASVGDRVTITCKSSQSLLDSGNQKNFLTWYQQKPGQAPRLLIYWASTRESGIPPRFSGSGYGTDFTLTINNIESEDAAYYFCQNDYSYPYTFGQGTKVEIKR :: 14
humanized mAb BAP049-hum02 (antibody, human IgG4 S228P, kappa, V domains shown, Human IgG4(S228P), human kappa; tested as concentrated supernatant of transiently transfected CHO cells) VH: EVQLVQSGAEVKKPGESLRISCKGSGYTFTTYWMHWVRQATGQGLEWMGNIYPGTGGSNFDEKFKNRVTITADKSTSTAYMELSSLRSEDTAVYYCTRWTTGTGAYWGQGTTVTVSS VL: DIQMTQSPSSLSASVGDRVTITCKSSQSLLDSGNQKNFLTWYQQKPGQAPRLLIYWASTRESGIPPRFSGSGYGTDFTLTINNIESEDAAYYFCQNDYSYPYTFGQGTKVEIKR :: 2
humanized mAb BAP049-hum16 (antibody, human IgG4 S228P, kappa, V domains shown, Human IgG4(S228P), human kappa; tested as concentrated supernatant of transiently transfected CHO cells) VH: EVQLVQSGAEVKKPGESLRISCKGSGYTFTTYWMHWVRQAPGQGLEWMGNIYPGTGGSNFDEKFKNRFTISRDNSKNTLYLQMNSLRAEDTAVYYCTRWTTGTGAYWGQGTTVTVSS VL: EIVLTQSPDFQSVTPKEKVTITCKSSQSLLDSGNQKNFLTWYQQKPGQAPRLLIYWASTRESGVPSRFSGSGSGTDFTFTISSLEAEDAATYYCQNDYSYPYTFGQGTKVEIKR :: 15
